The measured values listed here are drawn from the supplement of paper PMC10307832.

system: PC-3 [JPC-3]; experiment: relative viability (nuclei count vs DMSO), 5 days (fraction); higher = more cells survive; settings: first compound 0.002 µM
Doc: threshold 0.9 (exclusive). Items with relative viability beneath it return met; others return not met.

>>> label_class("CCNC(=O)c1noc(-c2cc(C(C)C)c(O)cc2O)c1-c1ccc(CN2CCOCC2)cc1 [Luminespib] + Cc1nc(Nc2ncc(C(=O)Nc3c(C)cccc3Cl)s2)cc(N2CCN(CCO)CC2)n1 [Dasatinib] (partner 0.075 µM)")
"not met"
>>> label_class("CCNC(=O)c1noc(-c2cc(C(C)C)c(O)cc2O)c1-c1ccc(CN2CCOCC2)cc1 [Luminespib] + CC(C)C[C@H](NC(=O)[C@H](Cc1ccccc1)NC(=O)c1cnccn1)B(O)O [Bortezomib] (partner 0.002 µM)")
"met"
>>> label_class("CCNC(=O)c1noc(-c2cc(C(C)C)c(O)cc2O)c1-c1ccc(CN2CCOCC2)cc1 [Luminespib] + Nc1nc2[nH]cc(CCc3ccc(C(=O)N[C@@H](CCC(=O)O)C(=O)O)cc3)c2c(=O)[nH]1 [Pemetrexed] (partner 0.2 µM)")
"met"
>>> label_class("CCNC(=O)c1noc(-c2cc(C(C)C)c(O)cc2O)c1-c1ccc(CN2CCOCC2)cc1 [Luminespib] + COc1cccc2cc(-c3nc([C@H]4CC[C@H](C(=O)O)CC4)n4ncnc(N)c34)[nH]c12 [OSI-027] (partner 0.5 µM)")
"met"
>>> label_class("CCNC(=O)c1noc(-c2cc(C(C)C)c(O)cc2O)c1-c1ccc(CN2CCOCC2)cc1 [Luminespib] + O=C(c1cc(Cc2n[nH]c(=O)c3ccccc23)ccc1F)N1CCN(C(=O)C2CC2)CC1 [Olaparib] (partner 8 µM)")
"not met"

###

tested on: NCI-H1993; experiment: relative viability (nuclei count vs DMSO), 5 days (fraction); higher = more cells survive; conditions: first compound 20 µM
Entries annotated with measured relative viability
parameter: relative viability

>>> observed_result("Cc1csc(=NC2CCCCC2)n1/N=C/c1ccc(O)c(O)c1O [MIM1] + CCNC(=O)c1noc(-c2cc(C(C)C)c(O)cc2O)c1-c1ccc(CN2CCOCC2)cc1 [Luminespib] (partner 0.01 µM)")
0.499
>>> observed_result("Cc1csc(=NC2CCCCC2)n1/N=C/c1ccc(O)c(O)c1O [MIM1] + COc1cc2c(Oc3ccc(NC(=O)C4(C(=O)Nc5ccc(F)cc5)CC4)cc3F)ccnc2cc1OCCCN1CCOCC1 [Foretinib] (partner 0.25 µM)")
0.64
>>> observed_result("Cc1csc(=NC2CCCCC2)n1/N=C/c1ccc(O)c(O)c1O [MIM1] + CC(C)C[C@H](NC(=O)[C@H](Cc1ccccc1)NC(=O)c1cnccn1)B(O)O [Bortezomib] (partner 0.002 µM)")
0.473

###

Entries annotated with measured relative viability
system: SK-LU-1; assay: relative viability (nuclei count vs DMSO), 5 days (fraction); higher = more cells survive; details: first compound 0.8 µM
parameter: relative viability

>>> observed_result("Nc1cccc2c1CN(C1CCC(=O)NC1=O)C2=O (stereo not given) [Lenalidomide] + Cc1nc(Nc2ncc(C(=O)Nc3c(C)cccc3Cl)s2)cc(N2CCN(CCO)CC2)n1 [Dasatinib] (partner 0.075 µM)")
0.206
>>> observed_result("Nc1cccc2c1CN(C1CCC(=O)NC1=O)C2=O (stereo not given) [Lenalidomide] + CC1(C)CCC(c2ccc(Cl)cc2)=C(CN2CCN(c3ccc(C(=O)NS(=O)(=O)c4ccc(N[C@H](CCN5CCOCC5)CSc5ccccc5)c(S(=O)(=O)C(F)(F)F)c4)cc3)CC2)C1 [Navitoclax] (partner 0.5 µM)")
0.946
>>> observed_result("Nc1cccc2c1CN(C1CCC(=O)NC1=O)C2=O (stereo not given) [Lenalidomide] + CC(=O)c1c(C)c2cnc(Nc3ccc(N4CCNCC4)cn3)nc2n(C2CCCC2)c1=O [Palbociclib] (partner 0.5 µM)")
0.342
>>> observed_result("Nc1cccc2c1CN(C1CCC(=O)NC1=O)C2=O (stereo not given) [Lenalidomide] + O=C(c1cc(Cc2n[nH]c(=O)c3ccccc23)ccc1F)N1CCN(C(=O)C2CC2)CC1 [Olaparib] (partner 8 µM)")
0.542
>>> observed_result("Nc1cccc2c1CN(C1CCC(=O)NC1=O)C2=O (stereo not given) [Lenalidomide] + Cc1cc(Nc2cc(N3CCN(C)CC3)nc(Sc3ccc(NC(=O)C4CC4)cc3)n2)n[nH]1 [Tozasertib] (partner 0.1 µM)")
0.304
